These data points were gathered from PubChem BioAssay AID1159580.

Attribute: normalized growth
- EXPERIMENT: chemical genetic growth profiling, strain panel (AID 1159580);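 note: tested at 20 µM; growth read once vehicle control cultures reached saturation at 30 °C; 1 = growth at the plate median or of vehicle wells; lower values mean less growth of the strain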
- CONDITION SUMMARY: S. cerevisiae deletion strains, growth OD, locus YNL250W, strain rad50, hits give low values
The whole screen tested about 5,500 compounds, of which about 2,000 (36%) were called active. About 18% were inconclusive and are not listed. The list shows a part of the results.

Field normalized growth (entry "CC12CCC(CC1)C(C)(C)O2" ) reads 0.99 (inactive)

The value of normalized growth measured for the compound "Nc1ccc(S(=O)(=O)Nc2nccs2)cc1" turned out to be 0.989 (inactive)

# normalized growth of "NC(=O)N/N=C\c1ccc([N+](=O)[O-])o1" = 0.97 (inactive)

Quick note, normalized growth for CC[C@@H](C(=O)O)[C@@H]1O[C@@H]([C@@H](C)[C@H](O)[C@H](C)C(=O)[C@H](CC)[C@H]2O[C@]3(C=C[C@@H](O)[C@]4(CC[C@@](C)(C5CC[C@](O)(CC)[C@H](C)O5)O4)O3)[C@H](C)C[C@@H]2C)[C@@H](C)C[C@H]1C (stereo partly specified) landed at 0.262 (active)

"Nc1nccs1" yielded normalized growth of 0.989 (inactive)

For this compound ( "C=CCc1cc(OC)c2c(c1OC)OCO2" ), measured normalized growth is 0.967 (inactive)

Given item CC(=O)C1=C(O)C2C3c4c[nH]c5cccc(c45)CC3C(C)(C)N2C1=O (stereo unspecified) , the value recorded as its normalized growth is 1.01 (inactive)

The compound listed as "NCCCCN=C(N)N" has a reported normalized growth of 0.974 (inactive)

Item: "COS(C)(=O)=O" | normalized growth: 1.02 (inactive)

The reported value for CC(=O)N[C@@H]1[C@@H](C(O)[C@H](O)CO)O[C@](O)(C(=O)O)C[C@@H]1O (stereo partly specified) in terms of normalized growth is 0.999 (inactive)

Notebook: "O=C1N=C(O)CN1/N=C\c1ccc(-c2ccc([N+](=O)[O-])cc2)o1" , normalized growth read as 1.06 (inactive)

###

Below is a list of entries, each paired with its recorded normalized growth value.
- EXPERIMENT: chemical genetic growth profiling, strain panel (AID 1159580);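 note: tested at 20 µM; growth read once vehicle control cultures reached saturation at 30 °C; 1 = growth at the plate median or of vehicle wells; lower values mean less growth of the strain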
- CONDITION SUMMARY: S. cerevisiae deletion strains, growth OD, locus YBR231C, strain swc5, hits give low values
Among all 5,500 compounds or so, about 2,000 (36%) were called active. Not shown: some 18% with an inconclusive outcome. Some of the results follow.
Respond numerically, and do not add a unit to the figure.

Sample answers from the record:
MOLECULE: NC(=O)N/N=C\c1ccc([N+](=O)[O-])o1
normalized growth: 0.993

MOLECULE: CCOc1ccc2c(c1)C(C)=CC(C)(C)N2
normalized growth: 0.991

MOLECULE: CC1(C)O[C@@H]2[C@@H](CO[C@@]3(COS(N)(=O)=O)OC(C)(C)O[C@@H]23)O1
normalized growth: 0.981

MOLECULE: OC1CCCCC1N1CCC(c2ccccc2)CC1 (centres undefined)
normalized growth: 0.993

MOLECULE: NC(=O)c1cc[n+](CC2=C(C(=O)O)N3C(=O)C(NC(=O)C(c4ccccc4)S(=O)(=O)[O-])C3SC2)cc1 (centres undefined)
normalized growth: 1

// sample "O=C(O)c1ccc2c(c1)OCO2" , its normalized growth was 1.01

Form field normalized growth, entry "C[C@@H]1C[C@@H]([C@H](O)CC2CC(=O)NC(=O)C2)C(=O)[C@@H](C)C1" : 0.0623

Consider "NC(=O)c1ccc(N)nc1" . Its measured normalized growth is 0.989

Briefly, normalized growth measured for CC[C@@H]1[C@@H](O)N2C3C[C@H]1C1C(O)[C@]4(C[C@@H]12)c1ccccc1N(C)[C@@H]34 (some centres undefined) : 0.999

So for "O=C1OCCN1/N=C\c1ccc([N+](=O)[O-])o1" , the logged normalized growth turned out to be 0.929

GET /value?item= "CCCc1cc(OC)c2c(c1)OCO2" &field=normalized growth returns 1.01

According to the records, this molecule C[C@]12CCC3c4ccc(OS(=O)(=O)O)cc4CCC3C1CCC2=O (some centres undefined) displays normalized growth of 1.01

Kindly note the recorded normalized growth for "COc1ccc(/C=C/c2cc(O)cc(O)c2)cc1" , which is 1

normalized growth reading for Cc1cccc(CN2CCN(C(c3ccccc3)c3ccc(Cl)cc3)CC2)c1 (centres undefined) : 0.636

Measured normalized growth, "O=C1N=C(O)CN1/N=C\c1ccc(-c2ccc([N+](=O)[O-])cc2)o1" : 0.971

Value of measured normalized growth for the entry "COP(=S)(OC)Oc1ccc(SC)c(C)c1" : 1.03

get_value(item= "S=c1[nH]c2ccccc2s1" , readout=normalized growth) returns 0.946

# normalized growth (molecule: C=CCN1CC[C@]23c4c5ccc(O)c4OC2C(=O)CC[C@@]3(O)[C@H]1C5 (some centres undefined) ) is 0.969

For record COc1cc(C)c2c(c1C=O)Oc1c(c(C)c(O)c3c1C(O)OC3=O)OC2=O (centres undefined) the listed normalized growth is 1.01

normalized growth for "O=c1cccc2n1C[C@H]1CNCC2C1" is 1.02

Notebook: "c1ccc2[nH]c(-c3cscn3)nc2c1" , normalized growth read as 0.958

The value of normalized growth measured for the molecule "C=CCc1cc(OC)c2c(c1OC)OCO2" turned out to be 0.982

Briefly, normalized growth measured for "COS(C)(=O)=O" : 0.969

For "C=CC1=C(C)/C(=C/c2[nH]c(Cc3[nH]c(/C=C4\NC(=O)C(C)=C4C=C)c(C)c3CCC(=O)O)c(CCC(=O)O)c2C)NC1=O" the molecule record lists normalized growth as 1

Record COc1ccccc1OCC(O)CN1CCN(CC(=O)Nc2c(C)cccc2C)CC1 (centres undefined) . Reported normalized growth: 0.991
